TARGET OR TEST SYSTEM: Histone deacetylase 9 (Homo sapiens, UniProt Q9UKV0)
Sequence (Q9UKV0 whole entry): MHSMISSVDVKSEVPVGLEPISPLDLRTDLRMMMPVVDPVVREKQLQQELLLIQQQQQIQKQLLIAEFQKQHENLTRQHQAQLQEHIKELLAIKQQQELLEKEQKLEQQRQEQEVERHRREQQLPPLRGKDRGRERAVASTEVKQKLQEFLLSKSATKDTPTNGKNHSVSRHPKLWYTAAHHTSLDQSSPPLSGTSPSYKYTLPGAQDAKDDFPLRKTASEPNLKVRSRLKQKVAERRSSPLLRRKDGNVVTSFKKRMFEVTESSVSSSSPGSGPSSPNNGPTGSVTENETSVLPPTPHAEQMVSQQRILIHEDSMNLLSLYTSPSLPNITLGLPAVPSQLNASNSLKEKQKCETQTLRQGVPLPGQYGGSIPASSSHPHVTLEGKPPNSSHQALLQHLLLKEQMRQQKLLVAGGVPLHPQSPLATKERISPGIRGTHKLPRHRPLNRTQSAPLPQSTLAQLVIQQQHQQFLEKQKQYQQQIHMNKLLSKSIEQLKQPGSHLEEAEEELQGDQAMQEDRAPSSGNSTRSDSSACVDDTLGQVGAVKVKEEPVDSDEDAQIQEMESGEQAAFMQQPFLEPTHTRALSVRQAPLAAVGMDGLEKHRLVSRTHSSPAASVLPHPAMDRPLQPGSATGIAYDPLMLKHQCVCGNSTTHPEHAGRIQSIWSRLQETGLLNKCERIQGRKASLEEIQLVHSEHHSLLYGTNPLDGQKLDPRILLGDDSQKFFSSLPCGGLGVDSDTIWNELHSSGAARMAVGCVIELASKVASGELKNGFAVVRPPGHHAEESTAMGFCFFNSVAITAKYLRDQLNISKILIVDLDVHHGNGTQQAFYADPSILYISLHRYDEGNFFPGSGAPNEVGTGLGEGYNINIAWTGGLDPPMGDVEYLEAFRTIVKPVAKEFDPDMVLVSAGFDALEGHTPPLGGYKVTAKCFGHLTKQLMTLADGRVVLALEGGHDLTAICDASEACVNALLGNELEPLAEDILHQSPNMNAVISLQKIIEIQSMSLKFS
pIC50 values by entry
As a rule, pIC50 stands for the negative log10 of the concentration, concentration in M.

CPD SMILES	TARGET OR TEST SYSTEM	pIC50
Cc1ccc(-c2csc(NC(=O)CCCCCCS)n2)cc1	Histone deacetylase 9 (Homo sapiens, UniProt Q9UKV0)	7.38

Let us examine a further case.
Form: Entry = Cc1ccc(-c2csc(NC(=O)CCCCCCS)n2)cc1F | System = Histone deacetylase 9 (Homo sapiens, UniProt Q9UKV0) | pIC50 = ____
7.21
